The origin of these recorded values is paper PMC5520944.

Examples of compounds with documented activity at 10 µM follow.
System: L929sAhFas
EXPERIMENT DESCRIPTION: cells
Design: high-content necroptosis screen, percentage PI-positive nuclei as percent of DMSO plus stimulus control
EXPERIMENTAL PARAMETERS: read-out: cell death TNF/Taki (POC)

| COMPOUND | SYSTEM TESTED | UNIT STRING | activity at 10 µM |
| --- | --- | --- | --- |
| C[S+]([O-])c1ccc(-c2nc(-c3ccc(F)cc3)c(-c3ccncc3)[nH]2)cc1 (stereo not shown) | L929sAhFas | % | 99.6 |
| COc1cc2ncc(-c3ccccc3)nc2cc1OC | L929sAhFas | % | 93.6 |
| c1ccc2c(-c3ccncc3)c[nH]c2c1 | L929sAhFas | % | 99 |
| O=c1c(O)c(-c2ccc(O)c(O)c2)oc2cc(O)cc(O)c12 | L929sAhFas | % | 98.5 |
